Tested on: soluble VEGF121 and VEGF165 isoforms
Test: Inhibition of soluble VEGF production in human tumor cell lines (ELISA, EC50)
Format: cell-based
Conditions: Gastric, Kato III, hypoxic (1% oxygen), 48 hours
assay-metric: EC50 (nM)
Quick note: give the figure in nM, leave out the unit.

(Q) Please look up its EC50: COc1ccc(C2c3[nH]c4ccc(Cl)cc4c3CCN2C(=O)Oc2ccc(Cl)cc2)cc1 (racemic) [Compound #10]
(A) 10

----------
Tested on: hypoxia-inducible endogenous VEGF expression
Assay: Hypoxia-inducible endogenous VEGF expression ELISA in HeLa cells, dose-response EC50 (Table 3)
Type: cell-based, human
Settings: Homo sapiens; HeLa cells, hypoxic conditions (1% O2), VEGF ELISA of conditioned media; read-out: ELISA EC50
pEC50: −log10 of the molar value.
Parameter: pEC50. Scope: all listed entries.

Example entries begin here.
O=C(Oc1ccc(Cl)cc1)N1CCc2c([nH]c3ccc(Cl)cc23)[C@@H]1c1ccc(OC2COC2)cc1 [Compound 1701]    > 8.10
N#Cc1cn(CCOc2ccc(C3c4[nH]c5ccc(Cl)cc5c4CCN3C(=O)Oc3ccc(F)cc3)cc2)nc1N (stereo not drawn) [Compound 1441]    7.40 to 8.10

// next entry
(Q) Please look up its pEC50: Cc1cc(NCCOc2ccc(C3c4[nH]c5ccc(Cl)cc5c4CCN3C(=O)Oc3ccc(Cl)cc3)cc2)on1 (stereo not drawn) [Compound 1419]
(A) 7.40 to 8.10

----------
Tested on: hypoxia-inducible endogenous VEGF expression
Experiment: Hypoxia-inducible endogenous VEGF expression ELISA in HeLa cells, dose-response EC50 (Table 3)
Assay type: cell-based, human
Settings: Homo sapiens, HeLa, read-out: ELISA EC50 μM
assay-metric: EC50

Example entries begin here.
CC(=O)N1CCN(CC(O)COc2ccc(C3c4[nH]c5ccc(Cl)cc5c4CCN3C(=O)Oc3ccc(Cl)cc3)cc2)CC1 (stereo not shown)    < 0.008 µM
COCCN(C)CCCOc1ccc(C2c3[nH]c4ccc(Cl)cc4c3CCN2C(=O)Oc2ccc(F)cc2)cc1 (stereo not shown)    0.04 to 0.2 µM
COc1ccc(C2c3[nH]c4ccc(Cl)cc4c3CCN2C(=O)Oc2ccc(Cl)cc2)cc1OCCN1CCOCC1 (stereo not shown)    0.2 to 1 µM

(Q) Item CN1CCN(CCCOc2ccc(C3c4[nH]c5ccc(Cl)cc5c4CCN3C(=O)Oc3ccc(F)cc3)cc2)CC1 (stereo not shown) with hypoxia-inducible endogenous VEGF expression - EC50?
(A) < 0.008 µM

----------
System: hypoxia-inducible endogenous VEGF expression
Test: Hypoxia-inducible endogenous VEGF expression ELISA in HeLa cells, dose-response EC50 (Table 3)
Type: cell-based, human
Conditions: Homo sapiens; HeLa cells, hypoxic conditions (1% O2), VEGF ELISA of conditioned media; read-out: ELISA EC50
pEC50: −log10 of the molar value.
Parameter: pEC50. Scope: all listed entries.

Example entries begin here.
CCOC(=O)NCC(O)CCOc1ccc([C@H]2c3[nH]c4ccc(Cl)cc4c3CCN2C(=O)Oc2ccc(C)cc2)cc1 (some centres unmarked) [Compound 1643]    > 8.10
CC(CO)(CO)COc1ccc([C@H]2c3[nH]c4ccc(Cl)cc4c3CCN2C(=O)Oc2ccccc2)cc1 [Compound 1336]    7.40 to 8.10

(Q) Please look up its pEC50: O=C(Oc1ccc(Cl)cc1)N1CCc2c([nH]c3ccc(Cl)cc23)[C@@H]1c1ccc(Oc2ncccn2)cc1 [Compound 1570]
(A) > 8.10

(Q) What do we get for C#CCCOc1ccc([C@H]2c3[nH]c4ccc(Cl)cc4c3CCN2C(=O)Oc2ccc(Cl)cc2)cc1 [Compound 1614] ?
(A) > 8.10

(Q) What do we get for O=C(NCC(O)CCOc1ccc([C@H]2c3[nH]c4ccc(Cl)cc4c3CCN2C(=O)Oc2ccc(Cl)cc2)cc1)c1cccnc1 (some centres unmarked) [Compound 1628] ?
(A) > 8.10

(Q) What do we get for CC(CO)(CO)COc1ccc(C2c3[nH]c4ccc(Br)cc4c3CCN2C(=O)Oc2ccc(Cl)cc2)cc1 (centres unmarked) [Compound 1353] ?
(A) > 8.10

(Q) What do we get for CC(C)C(=O)NCC(O)CCOc1ccc([C@H]2c3[nH]c4ccc(Cl)cc4c3CCN2C(=O)Oc2ccc(Cl)cc2)cc1 (some centres unmarked) [Compound 1626] ?
(A) > 8.10

(Q) What do we get for N#Cc1cn(CCOc2ccc(C3c4[nH]c5ccc(Cl)cc5c4CCN3C(=O)Oc3ccc(Cl)cc3)cc2)nc1N (centres unmarked) [Compound 1421] ?
(A) > 8.10

(Q) What do we get for NC(=O)c1cn(CCOc2ccc(C3c4[nH]c5ccc(Cl)cc5c4CCN3C(=O)Oc3ccc(F)cc3)cc2)nc1N (centres unmarked) [Compound 1416] ?
(A) 6.70 to 7.40

(Q) What do we get for CCC(=O)NCC(O)CCOc1ccc([C@H]2c3[nH]c4ccc(Cl)cc4c3CCN2C(=O)Oc2ccc(Cl)cc2)cc1 (some centres unmarked) [Compound 1625] ?
(A) > 8.10

(Q) What do we get for Cc1ccc(OC(=O)N2CCc3c([nH]c4ccc(Cl)cc34)[C@@H]2c2ccc(OCCC(O)CNC(=O)C(C)C)cc2)cc1 (some centres unmarked) [Compound 1640] ?
(A) > 8.10

(Q) What do we get for CS(=O)(=O)NCC(O)CCOc1ccc([C@H]2c3[nH]c4ccc(Cl)cc4c3CCN2C(=O)Oc2ccc(Cl)cc2)cc1 (some centres unmarked) [Compound 1667] ?
(A) > 8.10

(Q) What do we get for O=C(Oc1ccc(Cl)cc1)N1CCc2c([nH]c3ccc(Cl)cc23)[C@@H]1c1ccc(OCCC(O)CNS(=O)(=O)C2CC2)cc1 (some centres unmarked) [Compound 1639] ?
(A) > 8.10

(Q) What do we get for O=C(Oc1ccc(Cl)cc1)N1CCc2c([nH]c3ccc(Cl)cc23)[C@@H]1c1ccc(OCc2cn(C3OC(CO)C(O)C(O)C3O)nn2)cc1 (some centres unmarked) [Compound 1674] ?
(A) 6.00 to 6.70

----------
Parameter: EC50. Scope: all listed entries.
System: hypoxia-inducible endogenous VEGF expression
Test: Hypoxia-inducible endogenous VEGF expression ELISA in HeLa cells, dose-response EC50 (Table 3)
Type: cell-based, human
Details: Homo sapiens, HeLa, read-out: ELISA EC50 μM

CCN(CC)CC(O)COc1ccc(C2c3[nH]c4ccc(Cl)cc4c3CCN2C(=O)Oc2ccc(Cl)cc2)cc1 (stereo not drawn) [Compound 938]    < 0.008 µM
O=C1NC2CSC(CCCCC(=O)OCCOc3ccc(C4c5[nH]c6ccc(Cl)cc6c5CCN4C(=O)Oc4ccc(Cl)cc4)cc3)C2N1 (stereo not drawn) [Compound 544]    < 0.008 µM

// next entry
(Q) Item O=C(Oc1ccc(Cl)cc1)N1CCc2c([nH]c3ccc(Cl)cc23)C1c1ccc(OCCCN(CCO)CCO)cc1 (stereo not drawn) [Compound 1184] with hypoxia-inducible endogenous VEGF expression - EC50?
(A) < 0.008 µM
